Taken from patent US20250326718A1.

- System: MRSA (ATCC BAA 44) biofilm
- Assay Details: Inhibition of MRSA biofilm formation (crystal violet)
- Type: cell-based
- Run Parameters: Staphylococcus aureus; 40 μM; 24 h; Table 1
Measured Property: inhibition at 40 µM (%)
Please give a number only; it is taken to be in %.

CCC1C(c2ccc(C(F)(F)F)cc2)=C(O)C(=O)N1c1cccnc1 (stereo not shown) | 31
CCC1C(c2ccc(C(F)(F)F)cc2)=C(O)C(=O)N1c1ccc(Br)cc1 (stereo not shown) | 72
CCC1C(c2ccc(C(F)(F)F)cc2)=C(O)C(=O)N1Cc1ccc(OC)cc1OC (stereo not shown) | 57
CC(C)C1C(c2ccc(C(F)(F)F)cc2)=C(O)C(=O)N1c1ccccc1 (stereo not shown) | 3
CCC1C(c2ccc(C(F)(F)F)cc2)=C(O)C(=O)N1CCc1ccccc1 (stereo not shown) | 46
CCC1C(c2ccc(C(F)(F)F)cc2)=C(O)C(=O)N1c1ccc(F)cc1 (stereo not shown) | 81
CCC1C(c2ccc(C(F)(F)F)cc2)=C(O)C(=O)N1c1ccccc1 (stereo not shown) | 85
CCC1C(c2ccc(C(F)(F)F)cc2)=C(O)C(=O)N1c1ccc(OC)c(OC)c1 (stereo not shown) | 70

Field: next compound
Incoming: Retrieve inhibition at 40 µM measured for CCC1C(c2ccc(C(F)(F)F)cc2)=C(O)C(=O)N1CCC(C)C (stereo not shown) and print it.
Outgoing: 43

====

Entries and their MIC
- Test system: MRSA (ATCC 33591)
- Assay Details: Broth microdilution MIC, MRSA ATCC 33591
- Format: cell-based
- Run Parameters: Staphylococcus aureus; Tables 2-4; standardized conditions

CCC1C(c2ccc(C(F)(F)F)cc2)=C(O)C(=O)N1CCNCCNCCNCCN (stereo not drawn) [Compound 34] | > 128 µg/mL
CCC1C(c2ccc(C(F)(F)F)cc2)=C(O)C(=O)N1CCCNCCCCN (stereo not drawn) [Compound 23] | 32 to 64 µg/mL

Incoming: Retrieve MIC measured for CCC1C(c2ccc(C(F)(F)F)cc2)=C(O)C(=O)N1CCOCCOCCOCCN1C(=O)C(O)=C(c2ccc(C(F)(F)F)cc2)C1CC (stereo not drawn) [Compound 31] and print it.
Outgoing: > 128 µg/mL

====

Entries and their MIC
- Test system: MRSA (ATCC 33591)
- Assay Details: Broth microdilution MIC, MRSA ATCC 33591
- Assay type: cell-based
- Run Parameters: Staphylococcus aureus; Tables 2-4; standardized conditions
Please give a number only; it is taken to be in µg/mL.

# annotated cases, reported MIC shown
O=C1C(O)=C(c2ccc(C(F)(F)F)cc2)C([C@H](O)c2ccccc2)N1c1ccc(I)cc1 (stereo partly shown) | 4
CCC1C(c2ccc(C(F)(F)F)cc2)=C(O)C(=O)N1CCCCNCCCN1C(=O)C(O)=C(c2ccc(C(F)(F)F)cc2)C1CC (stereo not shown) | 64
CCC1C(c2ccc(C(F)(F)F)cc2)=C(O)C(=O)N1CCCNCCCCNCCCN (stereo not shown) | 16
CCC1C(c2ccc(C(F)(F)F)cc2)=C(O)C(=O)N1C1CCC(N2C(=O)C(O)=C(c3ccc(C(F)(F)F)cc3)C2CC)CC1 (stereo not shown) | 32

Field: next compound
Incoming: Retrieve MIC measured for O=C1C(O)=C(c2ccc(C(F)(F)F)cc2)C([C@@H](O)c2ccccc2)N1c1ccc(Br)cc1 (stereo partly shown) and print it.
Outgoing: 32
